MEASURED TARGET: GPR119 (Homo sapiens, UniProt Q8TDV5)
Sequence (Q8TDV5 whole entry): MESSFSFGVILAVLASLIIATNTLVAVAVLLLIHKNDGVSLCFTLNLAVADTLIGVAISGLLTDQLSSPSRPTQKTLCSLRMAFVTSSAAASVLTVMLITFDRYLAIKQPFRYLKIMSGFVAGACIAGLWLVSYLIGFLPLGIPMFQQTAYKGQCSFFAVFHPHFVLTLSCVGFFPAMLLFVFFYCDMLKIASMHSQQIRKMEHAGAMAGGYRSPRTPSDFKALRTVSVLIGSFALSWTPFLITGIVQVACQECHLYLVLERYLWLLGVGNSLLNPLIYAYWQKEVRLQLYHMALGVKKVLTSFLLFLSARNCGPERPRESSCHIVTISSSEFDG
METHOD NOTES: cAMP Accumulation Assay (GPR119 CRE-bla CHO-K1 cells, LiveBLAzer-FRET B/G)
CONDITION NOTES: 5 hours incubation
Reported pEC50 values for the following molecules.
API: returns pEC50 as number; meaning -log10 of concentration in mol/L.

Sample answers from the record:
[[record]]
molecule = "CCCn1ncn(-c2ccc(-c3cnc(N4CCN(c5noc(C(C)C)n5)CC4)c(C#N)c3)cc2F)c1=O.Cl [Example 49, hydrochloride]"
measured_target = "GPR119 (Homo sapiens, UniProt Q8TDV5)"
result = 8.14

[[record]]
molecule = "CC(C)c1nc(N2CCN(c3ncc(-c4ccc(-n5cnn(C(C)C)c5=O)c(F)c4)cc3C#N)CC2)no1 [Example 46]"
measured_target = "GPR119 (Homo sapiens, UniProt Q8TDV5)"
result = 8.38

[[record]]
molecule = "CCc1cnc(N2CCN(c3ncc(-c4ccc(-n5cnn([C@H]6CCNC6)c5=O)cc4)cc3C#N)CC2)nc1 [Example 42]"
measured_target = "GPR119 (Homo sapiens, UniProt Q8TDV5)"
result = 7.68


Input line: Using the record for C=C(C)OC(=O)N(C)C1CCN(c2ncc(-c3ccc(-n4cnn(C(C)C)c4=O)c(F)c3)cc2C#N)CC1 [Example 59] , report its pEC50.
Output line: 7.51

Input line: Consider the molecule CC(C)n1ncn(-c2ccc(-c3cnc(N4CCC(N(C)C(=O)OC(C)(C)C)CC4)c(C#N)c3)cc2F)c1=O [Example 58] and give its measured pEC50.
Output line: 7.80

Input line: Using the record for COCCn1ncn(-c2ccc(-c3cnc(N4CCC(c5nnc(C(F)(F)F)o5)CC4)c(C#N)c3)cc2F)c1=O [Example 76] , report its pEC50.
Output line: 7.71

Input line: Need pEC50 of CCc1cnc(N2CCN(c3ncc(-c4cc(F)c(-n5cnn(C)c5=O)cc4F)cc3C#N)[C@@H](C)C2)nc1 [Example 29] , thanks.
Output line: 8.82
